Species: Rattus norvegicus
Assay: Open TG-GATES - Regimen: Single
Type: toxicity, organism-based, Sprague-Dawley
Parameters: regimen Single, gender Male, age 6 weeks
Settings: in vivo, po, 0 mg/kg, 6 h, tissue Blood, route gavage, dose level Control
READOUT: Mono (%)
Give the value, in units of %, as a plain number.

# Mono of CCOc1ccc(NC(=O)CC(C)O)cc1 (stereo not given) [BUCETIN] = 1.8

# Mono of COC1=CC(=O)C[C@@H](C)[C@]12Oc1c(Cl)c(OC)cc(OC)c1C2=O [GRISEOFULVIN] = 3.2

---
# Mono of NC(N)=Nc1nc(CSCCC(N)=NS(N)(=O)=O)cs1 [FAMOTIDINE] = 2.4

# Mono of C[C@@H]1C[C@H]2[C@@H]3CCC4=CC(=O)C=C[C@]4(C)[C@@]3(F)[C@@H](O)C[C@]2(C)[C@@]1(O)C(=O)CO [DEXAMETHASONE] = 4.4

# Mono of Cc1ccc(C)c(OCCCC(C)(C)C(=O)O)c1 [GEMFIBROZIL] = 3.6

# Mono of NNC(=O)c1ccncc1 [ISONIAZID] = 3

====

Species: Rattus norvegicus
Test: Open TG-GATES - Regimen: Single
Format: toxicity, organism-based, Sprague-Dawley
Parameters: regimen Single, gender Male, age 6 weeks
Details: in vivo, po, 100 mg/kg, 3 h, tissue Plasma, route gavage, dose level Low
Each entry below carries its recorded ALT.
Give the value, in units of IU/L, as a plain number.

# ALT of "NC(N)=Nc1nc(CSCCC(N)=NS(N)(=O)=O)cs1" = 38

# ALT of CCOC(=O)CCC(=O)O[C@H]1[C@H](O[C@@H]2[C@@H](C)[C@H](O[C@H]3C[C@@](C)(OC)[C@@H](O)[C@H](C)O3)[C@@H](C)C(=O)O[C@H](CC)[C@@](C)(O)[C@H](O)[C@@H](C)C(=O)[C@H](C)C[C@@]2(C)O)O[C@H](C)C[C@@H]1N(C)C [ERYTHROMYCIN ETHYLSUCCINATE] = 47.6

# ALT of COc1ccc2[nH]c([S+]([O-])Cc3ncc(C)c(OC)c3C)nc2c1 (centres undefined) = 33.8

# ---- query compound ----
# ALT of "COC1=CC(=O)C[C@@H](C)[C@]12Oc1c(Cl)c(OC)cc(OC)c1C2=O" = 37.8

====

Species on record: Rattus norvegicus
Assay: Open TG-GATES - Regimen: Single
Assay type: toxicity, organism-based, Sprague-Dawley
Design: regimen Single, gender Male, age 6 weeks
Conditions: in vivo, po, 300 mg/kg, 3 h, tissue Blood, route gavage, dose level Middle
Each entry below carries its recorded Ht.
Give the value, in units of %, as a plain number.

Example results:
# Ht of "NC(N)=Nc1nc(CSCCC(N)=NS(N)(=O)=O)cs1" = 37.9

# Ht of "COC1=CC(=O)C[C@@H](C)[C@]12Oc1c(Cl)c(OC)cc(OC)c1C2=O" = 37.4

# Ht of CCOC(=O)CCC(=O)O[C@H]1[C@H](O[C@@H]2[C@@H](C)[C@H](O[C@H]3C[C@@](C)(OC)[C@@H](O)[C@H](C)O3)[C@@H](C)C(=O)O[C@H](CC)[C@@](C)(O)[C@H](O)[C@@H](C)C(=O)[C@H](C)C[C@@]2(C)O)O[C@H](C)C[C@@H]1N(C)C [ERYTHROMYCIN ETHYLSUCCINATE] = 38.6

---
# Ht of COc1ccc2[nH]c([S+]([O-])Cc3ncc(C)c(OC)c3C)nc2c1 (centres undefined) = 36.4

====

Organism: Rattus norvegicus
Test: Open TG-GATES - Regimen: Single
Type: toxicity, organism-based, Sprague-Dawley
Design: regimen Single, gender Male, age 6 weeks
Conditions: in vivo, po, 10 mg/kg, 9 h, tissue Plasma, route gavage, dose level Low
READOUT: RALB (g/dL)
Give the value, in units of g/dL, as a plain number.

Example results:
# RALB of CC(C)OC(=O)C(C)(C)Oc1ccc(C(=O)c2ccc(Cl)cc2)cc1 [FENOFIBRATE] = 2.4

# RALB of "CN(C)CCN(Cc1cccs1)c1ccccn1" = 3

# RALB of CN(C)CCCN1c2ccccc2CCc2ccccc21 [IMIPRAMINE] = 2.6

---
# RALB of CN(C)CCCN1c2ccccc2CCc2ccc(Cl)cc21 [CLOMIPRAMINE] = 2.5

# RALB of CC1=C(/C=C/C(C)=C/C=C/C(C)=C/CO)C(C)(C)CCC1 [RETINOL] = 3

====

Species on record: Rattus norvegicus
Assay: Open TG-GATES - Regimen: Single
Format: toxicity, organism-based, Sprague-Dawley
Design: regimen Single, gender Male, age 6 weeks
Conditions: in vivo, po, 30 mg/kg, 24 h, tissue Kidney, route gavage, dose level Middle
READOUT: KIDNEY_L (g)
Give the value, in units of g, as a plain number.

Example results:
# KIDNEY_L of CC1=C(/C=C/C(C)=C/C=C/C(C)=C/CO)C(C)(C)CCC1 [RETINOL] = 0.9

# KIDNEY_L of "CN(C)CCN(Cc1cccs1)c1ccccn1" = 0.9

# KIDNEY_L of CN(C)CCCN1c2ccccc2CCc2ccccc21 [IMIPRAMINE] = 0.9

---
# KIDNEY_L of CN(C)CCCN1c2ccccc2CCc2ccc(Cl)cc21 [CLOMIPRAMINE] = 1

====

Species: Rattus norvegicus
Assay: Open TG-GATES - Regimen: Daily Repeat
Type: toxicity, organism-based, Sprague-Dawley
Set-up: regimen Daily Repeat, gender Male, age 6 weeks
Details: in vivo, po, 1000 mg/kg, […], tissue Blood, route gavage, dose level High, time 7 day
READOUT: Lym (%)
Give the value, in units of %, as a plain number.

# Lym of "COC1=CC(=O)C[C@@H](C)[C@]12Oc1c(Cl)c(OC)cc(OC)c1C2=O" = 79.2

# Lym of "NC(N)=Nc1nc(CSCCC(N)=NS(N)(=O)=O)cs1" = 75

# Lym of CCOc1ccc(NC(=O)CC(C)O)cc1 (stereo not given) = 67.2

# Lym of COc1ccc2[nH]c([S+]([O-])Cc3ncc(C)c(OC)c3C)nc2c1 (stereo not given) = 80.4

---
# Lym of CCOC(=O)CCC(=O)O[C@H]1[C@H](O[C@@H]2[C@@H](C)[C@H](O[C@H]3C[C@@](C)(OC)[C@@H](O)[C@H](C)O3)[C@@H](C)C(=O)O[C@H](CC)[C@@](C)(O)[C@H](O)[C@@H](C)C(=O)[C@H](C)C[C@@]2(C)O)O[C@H](C)C[C@@H]1N(C)C [ERYTHROMYCIN ETHYLSUCCINATE] = 81.6

====

Each entry below carries its recorded TBIL.
Species: Rattus norvegicus
Assay: Open TG-GATES - Regimen: Single
Type: toxicity, organism-based, Sprague-Dawley
Set-up: regimen Single, gender Male, age 6 weeks
Settings: in vivo, po, 10 mg/kg, 24 h, tissue Plasma, route gavage, dose level Low
Give the value, in units of mg/dL, as a plain number.

Example results:
# TBIL of "CC1=C(/C=C/C(C)=C/C=C/C(C)=C/CO)C(C)(C)CCC1" = 0.002

# TBIL of "CN(C)CCN(Cc1cccs1)c1ccccn1" = 0.008

# TBIL of "CN(C)CCCN1c2ccccc2CCc2ccccc21" = 0.058

# TBIL of CC(C)OC(=O)C(C)(C)Oc1ccc(C(=O)c2ccc(Cl)cc2)cc1 [FENOFIBRATE] = 0.04

---
# TBIL of "CN(C)CCCN1c2ccccc2CCc2ccc(Cl)cc21" = 0.062

====

Species on record: Rattus norvegicus
Experiment: Open TG-GATES - Regimen: Single
Assay type: toxicity, organism-based, Sprague-Dawley
Parameters: regimen Single, gender Male, age 6 weeks
Conditions: in vivo, po, 30 mg/kg, 24 h, tissue Blood, route gavage, dose level Middle
Each entry below carries its recorded Lym.
Give the value, in units of %, as a plain number.

Example results:
# Lym of "CN(C)CCN(Cc1cccs1)c1ccccn1" = 84.4

# Lym of CN(C)CCCN1c2ccccc2CCc2ccc(Cl)cc21 [CLOMIPRAMINE] = 81.6

# Lym of CC1=C(/C=C/C(C)=C/C=C/C(C)=C/CO)C(C)(C)CCC1 [RETINOL] = 79.4

# ---- query compound ----
# Lym of CN(C)CCCN1c2ccccc2CCc2ccccc21 [IMIPRAMINE] = 82

====

Species: Rattus norvegicus
Assay: Open TG-GATES - Regimen: Daily Repeat
Format: toxicity, organism-based, Sprague-Dawley
Design: regimen Daily Repeat, gender Male, age 6 weeks
Details: in vivo, po, 10 mg/kg, […], tissue Blood, route gavage, dose level Low, time 14 day
READOUT: Bas (%)
Give the value, in units of %, as a plain number.

# Bas of "CN(C)CCN(Cc1cccs1)c1ccccn1" = 0

# Bas of CN(C)CCCN1c2ccccc2CCc2ccccc21 [IMIPRAMINE] = 0.2

# Bas of CC1=C(/C=C/C(C)=C/C=C/C(C)=C/CO)C(C)(C)CCC1 [RETINOL] = 0

---
# Bas of CC(C)OC(=O)C(C)(C)Oc1ccc(C(=O)c2ccc(Cl)cc2)cc1 [FENOFIBRATE] = 0
